Tested on: NCI-H1650
Assay: relative viability (nuclei count vs DMSO), 5 days (fraction); higher = more cells survive
Conditions: first compound 5 µM
Assay metric: relative viability
API doc: respond with a numeric literal and nothing else, no unit.

Below, each entry is followed by its recorded relative viability result.
O=C(O)CCCCC(CCSCc1ccccc1)SCc1ccccc1 (stereo not drawn) [CPI-613] + Nc1nc2[nH]cc(CCc3ccc(C(=O)N[C@@H](CCC(=O)O)C(=O)O)cc3)c2c(=O)[nH]1 [Pemetrexed] (partner 0.2 µM): 0.346
O=C(O)CCCCC(CCSCc1ccccc1)SCc1ccccc1 (stereo not drawn) [CPI-613] + CCNC(=O)c1noc(-c2cc(C(C)C)c(O)cc2O)c1-c1ccc(CN2CCOCC2)cc1 [Luminespib] (partner 0.01 µM): 0.213

Attention now shifts to the item below.
# relative viability of O=C(O)CCCCC(CCSCc1ccccc1)SCc1ccccc1 (stereo not drawn) [CPI-613] + O=C(c1cc(Cc2n[nH]c(=O)c3ccccc23)ccc1F)N1CCN(C(=O)C2CC2)CC1 [Olaparib] (partner 8 µM) = 0.728

###

System: Calu-6
Assay: relative viability (nuclei count vs DMSO), 5 days (fraction); higher = more cells survive
Settings: first compound 0.002 µM
Assay metric: relative viability

Below, each entry is followed by its recorded relative viability result.
CC(=O)O[C@@]12CO[C@@H]1C[C@H](O)[C@@]1(C)C(=O)[C@H](O)C3=C(C)[C@@H](OC(=O)[C@H](O)[C@@H](NC(=O)OC(C)(C)C)c4ccccc4)C[C@@](O)([C@@H](OC(=O)c4ccccc4)[C@H]21)C3(C)C [Docetaxel] + CC1(C)CCC(c2ccc(Cl)cc2)=C(CN2CCN(c3ccc(C(=O)NS(=O)(=O)c4ccc(N[C@H](CCN5CCOCC5)CSc5ccccc5)c(S(=O)(=O)C(F)(F)F)c4)cc3)CC2)C1 [Navitoclax] (partner 0.5 µM): 0.111
CC(=O)O[C@@]12CO[C@@H]1C[C@H](O)[C@@]1(C)C(=O)[C@H](O)C3=C(C)[C@@H](OC(=O)[C@H](O)[C@@H](NC(=O)OC(C)(C)C)c4ccccc4)C[C@@](O)([C@@H](OC(=O)c4ccccc4)[C@H]21)C3(C)C [Docetaxel] + CS(=O)(=O)CCNCc1ccc(-c2ccc3ncnc(Nc4ccc(OCc5cccc(F)c5)c(Cl)c4)c3c2)o1 [Lapatinib] (partner 2 µM): 0.286
CC(=O)O[C@@]12CO[C@@H]1C[C@H](O)[C@@]1(C)C(=O)[C@H](O)C3=C(C)[C@@H](OC(=O)[C@H](O)[C@@H](NC(=O)OC(C)(C)C)c4ccccc4)C[C@@](O)([C@@H](OC(=O)c4ccccc4)[C@H]21)C3(C)C [Docetaxel] + CC(C)C[C@H](NC(=O)[C@H](Cc1ccccc1)NC(=O)c1cnccn1)B(O)O [Bortezomib] (partner 0.002 µM): 0.327
CC(=O)O[C@@]12CO[C@@H]1C[C@H](O)[C@@]1(C)C(=O)[C@H](O)C3=C(C)[C@@H](OC(=O)[C@H](O)[C@@H](NC(=O)OC(C)(C)C)c4ccccc4)C[C@@](O)([C@@H](OC(=O)c4ccccc4)[C@H]21)C3(C)C [Docetaxel] + C[C@@H](Oc1cc(-c2cnn(C3CCNCC3)c2)cnc1N)c1c(Cl)ccc(F)c1Cl [Crizotinib] (partner 1 µM): 0.219
CC(=O)O[C@@]12CO[C@@H]1C[C@H](O)[C@@]1(C)C(=O)[C@H](O)C3=C(C)[C@@H](OC(=O)[C@H](O)[C@@H](NC(=O)OC(C)(C)C)c4ccccc4)C[C@@](O)([C@@H](OC(=O)c4ccccc4)[C@H]21)C3(C)C [Docetaxel] + C[C@]1(O)C[C@@H](c2nc(-c3ccc4ccc(-c5ccccc5)nc4c3)c3c(N)nccn32)C1 [Linsitinib] (partner 1 µM): 0.332

# relative viability of CC(=O)O[C@@]12CO[C@@H]1C[C@H](O)[C@@]1(C)C(=O)[C@H](O)C3=C(C)[C@@H](OC(=O)[C@H](O)[C@@H](NC(=O)OC(C)(C)C)c4ccccc4)C[C@@](O)([C@@H](OC(=O)c4ccccc4)[C@H]21)C3(C)C [Docetaxel] + O=C(c1cc(Cc2n[nH]c(=O)c3ccccc23)ccc1F)N1CCN(C(=O)C2CC2)CC1 [Olaparib] (partner 8 µM) = 0.243

###

Test system: HCC-78
Experiment: relative viability (nuclei count vs DMSO), 5 days (fraction); higher = more cells survive
Details: first compound 0.005 µM
Assay metric: relative viability
API doc: respond with a numeric literal and nothing else, no unit.

COc1cc2nccc(Oc3ccc(NC(=O)Nc4cc(C)on4)c(Cl)c3)c2cc1OC [Tivozanib] + CS(=O)(=O)N1CCN(Cc2cc3nc(-c4cccc5[nH]ncc45)nc(N4CCOCC4)c3s2)CC1 [Pictilisib] (partner 1 µM): 0.188
Nc1ccn([C@@H]2O[C@H](CO)[C@@H](O)[C@@H]2O)c(=O)n1 [Cytarabine] + O=C(c1cc(Cc2n[nH]c(=O)c3ccccc23)ccc1F)N1CCN(C(=O)C2CC2)CC1 [Olaparib] (partner 8 µM): 0.906
Nc1ccn([C@@H]2O[C@H](CO)[C@@H](O)[C@@H]2O)c(=O)n1 [Cytarabine] + CC1(C)CCC(c2ccc(Cl)cc2)=C(CN2CCN(c3ccc(C(=O)NS(=O)(=O)c4ccc(N[C@H](CCN5CCOCC5)CSc5ccccc5)c(S(=O)(=O)C(F)(F)F)c4)cc3)CC2)C1 [Navitoclax] (partner 0.5 µM): 0.879

# relative viability of Nc1ccn([C@@H]2O[C@H](CO)[C@@H](O)[C@@H]2O)c(=O)n1 [Cytarabine] + O=C(CCCCCCC(=O)Nc1ccccc1)NO [Vorinostat] (partner 1 µM) = 0.498

# relative viability of Nc1ccn([C@@H]2O[C@H](CO)[C@@H](O)[C@@H]2O)c(=O)n1 [Cytarabine] + C[C@]1(O)C[C@@H](c2nc(-c3ccc4ccc(-c5ccccc5)nc4c3)c3c(N)nccn32)C1 [Linsitinib] (partner 1 µM) = 0.538

# relative viability of Nc1ccn([C@@H]2O[C@H](CO)[C@@H](O)[C@@H]2O)c(=O)n1 [Cytarabine] + CC(C)C[C@H](NC(=O)[C@H](Cc1ccccc1)NC(=O)c1cnccn1)B(O)O [Bortezomib] (partner 0.002 µM) = 0.569

###

System: SW 1573
Experiment: relative viability (nuclei count vs DMSO), 5 days (fraction); higher = more cells survive
Conditions: first compound 0.5 µM
Assay metric: relative viability

COc1cc2nccc(Oc3ccc(NC(=O)Nc4cc(C)on4)c(Cl)c3)c2cc1OC [Tivozanib] + CS(=O)(=O)N1CCN(Cc2cc3nc(-c4cccc5[nH]ncc45)nc(N4CCOCC4)c3s2)CC1 [Pictilisib] (partner 1 µM): 0.406
COc1cc2nccc(Oc3ccc(NC(=O)Nc4cc(C)on4)c(Cl)c3)c2cc1OC [Tivozanib] + COc1cc2c(Oc3ccc(NC(=O)C4(C(=O)Nc5ccc(F)cc5)CC4)cc3F)ccnc2cc1OCCCN1CCOCC1 [Foretinib] (partner 0.25 µM): 0.903
Nc1ccn([C@@H]2O[C@H](CO)[C@@H](O)[C@@H]2O)c(=O)n1 [Cytarabine] + CC(C)C[C@H](NC(=O)[C@H](Cc1ccccc1)NC(=O)c1cnccn1)B(O)O [Bortezomib] (partner 0.002 µM): 0.159

Attention now shifts to the item below.
# relative viability of Nc1ccn([C@@H]2O[C@H](CO)[C@@H](O)[C@@H]2O)c(=O)n1 [Cytarabine] + Cc1cc(Nc2cc(N3CCN(C)CC3)nc(Sc3ccc(NC(=O)C4CC4)cc3)n2)n[nH]1 [Tozasertib] (partner 0.1 µM) = 0.101

###

Test system: RERF-LC-KJ
Test: relative viability (nuclei count vs DMSO), 5 days (fraction); higher = more cells survive
Details: first compound 0.8 µM
Kindly apply the following: Yes if relative viability is less than 0.8, No in every other case.

These recorded examples may help you get a feel for the data.
Cc1cnc(-c2cnc(NCCNc3ccc(C#N)cn3)nc2-c2ccc(Cl)cc2Cl)[nH]1 + C[C@]1(O)C[C@@H](c2nc(-c3ccc4ccc(-c5ccccc5)nc4c3)c3c(N)nccn32)C1 [Linsitinib] (partner 1 µM): No
Cc1cnc(-c2cnc(NCCNc3ccc(C#N)cn3)nc2-c2ccc(Cl)cc2Cl)[nH]1 + COc1cccc2cc(-c3nc([C@H]4CC[C@H](C(=O)O)CC4)n4ncnc(N)c34)[nH]c12 [OSI-027] (partner 0.5 µM): Yes

Below: the item to evaluate.
Ask: hey, is relative viability for Cc1cnc(-c2cnc(NCCNc3ccc(C#N)cn3)nc2-c2ccc(Cl)cc2Cl)[nH]1 + Cc1nc(NC(=O)N2CCC[C@H]2C(N)=O)sc1-c1ccnc(C(C)(C)C(F)(F)F)c1 [Alpelisib] (partner 2 µM) lower than 0.8 or not?
Result: Yes

###

Test system: NCI-H358
Experiment: relative viability (nuclei count vs DMSO), 5 days (fraction); higher = more cells survive
Conditions: first compound 0.1265 µM
Assay metric: relative viability
API doc: respond with a numeric literal and nothing else, no unit.

Below, each entry is followed by its recorded relative viability result.
Cc1sc2c(c1C)C(c1ccc(Cl)cc1)=N[C@@H](CC(=O)OC(C)(C)C)c1nnc(C)n1-2 [JQ1] + CCNC(=O)c1noc(-c2cc(C(C)C)c(O)cc2O)c1-c1ccc(CN2CCOCC2)cc1 [Luminespib] (partner 0.01 µM): 0.398
Cc1sc2c(c1C)C(c1ccc(Cl)cc1)=N[C@@H](CC(=O)OC(C)(C)C)c1nnc(C)n1-2 [JQ1] + Nc1nc2[nH]cc(CCc3ccc(C(=O)N[C@@H](CCC(=O)O)C(=O)O)cc3)c2c(=O)[nH]1 [Pemetrexed] (partner 0.2 µM): 0.198
Cc1sc2c(c1C)C(c1ccc(Cl)cc1)=N[C@@H](CC(=O)OC(C)(C)C)c1nnc(C)n1-2 [JQ1] + CS(=O)(=O)CCNCc1ccc(-c2ccc3ncnc(Nc4ccc(OCc5cccc(F)c5)c(Cl)c4)c3c2)o1 [Lapatinib] (partner 2 µM): 0.494

Attention now shifts to the item below.
# relative viability of Cc1sc2c(c1C)C(c1ccc(Cl)cc1)=N[C@@H](CC(=O)OC(C)(C)C)c1nnc(C)n1-2 [JQ1] + CC(=O)c1c(C)c2cnc(Nc3ccc(N4CCNCC4)cn3)nc2n(C2CCCC2)c1=O [Palbociclib] (partner 0.5 µM) = 0.163
